Test system: HepG2
protocol_description: cells
conditions: Homo sapiens, HepG2, 72 h, read-out: IC50 HepG2
pIC50: −log10 of the molar value.
endpoint: pIC50

| compound | measured_target | pIC50 |
| --- | --- | --- |
| CCOc1cc(/C=C/C(=O)/C=C/c2cn(-c3ccccc3)nc2-c2ccccc2)ccc1O [Compound 10e] | HepG2 | 4.87 |

A: COc1cc(/C=C/C(=O)/C=C/c2c(C)nn(-c3cccc([N+](=O)[O-])c3)c2Cl)cc(OC)c1O
B: COc1cc(/C=C/C(=O)/C=C/c2c(C)nn(-c3cccc([N+](=O)[O-])c3)c2Cl)ccc1O
// which entry reports the smaller pIC50, A or B ? State the label of the item chosen. B

###

measured_target: porcine brain tubulin (Sus scrofa, UniProt P02550+P02554)
Sequence (P02550 whole entry): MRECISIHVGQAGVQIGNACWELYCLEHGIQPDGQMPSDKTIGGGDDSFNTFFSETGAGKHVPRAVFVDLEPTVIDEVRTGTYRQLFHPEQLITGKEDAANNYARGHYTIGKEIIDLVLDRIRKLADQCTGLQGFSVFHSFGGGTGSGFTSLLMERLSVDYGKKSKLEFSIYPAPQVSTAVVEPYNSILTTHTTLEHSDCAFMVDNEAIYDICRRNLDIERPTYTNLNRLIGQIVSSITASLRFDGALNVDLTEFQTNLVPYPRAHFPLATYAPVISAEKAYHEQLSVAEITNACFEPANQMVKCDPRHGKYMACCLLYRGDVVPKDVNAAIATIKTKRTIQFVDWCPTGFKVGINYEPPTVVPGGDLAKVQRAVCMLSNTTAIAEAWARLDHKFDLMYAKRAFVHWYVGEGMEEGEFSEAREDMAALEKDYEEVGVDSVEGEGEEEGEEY
Sequence (P02554 whole entry): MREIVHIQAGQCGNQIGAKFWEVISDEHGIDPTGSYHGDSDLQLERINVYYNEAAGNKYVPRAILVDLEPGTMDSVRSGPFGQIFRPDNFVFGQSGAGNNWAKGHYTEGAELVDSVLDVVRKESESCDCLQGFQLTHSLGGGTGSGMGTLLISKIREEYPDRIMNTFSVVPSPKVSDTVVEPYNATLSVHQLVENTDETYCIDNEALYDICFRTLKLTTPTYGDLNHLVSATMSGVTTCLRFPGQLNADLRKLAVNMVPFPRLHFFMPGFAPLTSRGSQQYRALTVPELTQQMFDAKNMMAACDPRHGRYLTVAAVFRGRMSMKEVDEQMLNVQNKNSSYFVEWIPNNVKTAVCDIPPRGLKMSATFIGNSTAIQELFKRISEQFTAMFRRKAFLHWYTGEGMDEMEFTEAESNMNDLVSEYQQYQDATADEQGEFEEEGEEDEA
protocol_description: biochemical
conditions: read-out: % inhibition of tubulin polymerization
endpoint: inhibition at 20 µM (%)

Consider the following illustrative entries.
| compound | measured_target | unit_name | inhibition at 20 µM |
| --- | --- | --- | --- |
| COc1cc(/C=C/C(=O)/C=C/c2cn(-c3ccccc3)nc2-c2ccccc2)cc(OC)c1O [Compound 10h] | porcine brain tubulin (Sus scrofa, UniProt P02550+P02554) | % | 25.7 |
| COc1ccc(/C=C/C(=O)/C=C/c2c(C)nn(-c3cccc([N+](=O)[O-])c3)c2Cl)cc1OC [Compound 8a] | porcine brain tubulin (Sus scrofa, UniProt P02550+P02554) | % | 25.9 |
| COc1cc(/C=C/C(=O)/C=C/c2cn(-c3ccccc3)nc2-c2ccccc2)ccc1O [Compound 10c] | porcine brain tubulin (Sus scrofa, UniProt P02550+P02554) | % | 40.8 |
| COc1cc(/C=C/C(=O)/C=C/c2c(C)nn(-c3ccccc3)c2Cl)cc(OC)c1O [Compound 7h] | porcine brain tubulin (Sus scrofa, UniProt P02550+P02554) | % | 45.3 |
| COc1ccc(/C=C/C(=O)/C=C/c2c(C)nn(-c3ccccc3)c2Cl)cc1O [Compound 7d] | porcine brain tubulin (Sus scrofa, UniProt P02550+P02554) | % | 52 |

1: COc1ccc(/C=C/C(=O)/C=C/c2cn(-c3ccccc3)nc2-c2ccccc2)cc1O [Compound 10d]
2: COc1cc(/C=C/C(=O)/C=C/c2c(C)nn(-c3cccc([N+](=O)[O-])c3)c2Cl)cc(OC)c1O [Compound 8h]
// which entry reports the smaller inhibition at 20 µM, 1 or 2 ? State the label of the item chosen. 2
(2: 22.1%, 1: 35.5%)

###

Tested on: HepG2
protocol_description: cells
conditions: Homo sapiens, HepG2, 72 h, read-out: IC50 HepG2
endpoint: IC50 (µM)

Consider the following illustrative entries.
| compound | measured_target | IC50 [µM] |
| --- | --- | --- |
| COc1ccc(/C=C/C(=O)/C=C/c2c(C)nn(-c3ccccc3)c2Cl)cc1O [Compound 7d] | HepG2 | 14.2 |
| COc1cc(/C=C/C(=O)/C=C/c2c(C)nn(-c3ccccc3)c2Cl)cc(OC)c1OC [Compound 7g] | HepG2 | 13 |
| COc1cc(/C=C/C(=O)CC(=O)/C=C/c2ccc(O)c(OC)c2)ccc1O [curcumin, reference compound] | HepG2 | 23.4 |
| COc1cc(/C=C/C(=O)/C=C/c2c(C)nn(-c3cccc([N+](=O)[O-])c3)c2Cl)cc(OC)c1OC [Compound 8g] | HepG2 | 14.7 |
| COc1cc(/C=C/C(=O)/C=C/c2c(C)nn(-c3ccccc3)c2Cl)cc(OC)c1O [Compound 7h] | HepG2 | 6.03 |

a: COc1ccc(/C=C/C(=O)/C=C/c2c(C)nn(-c3ccccc3)c2Cl)cc1OC [Compound 7a]
b: COc1ccc(/C=C/C(=O)/C=C/c2cn(-c3ccccc3)nc2-c2ccccc2)cc1O [Compound 10d]
c: COc1ccc(/C=C/C(=O)/C=C/c2c(C)nn(-c3cccc([N+](=O)[O-])c3)c2Cl)c(OC)c1 [Compound 8b]
Order the 3 compounds from highest to lowest IC50. # list labels per requested ordering c, a, b
